Target: UniProt P14902
Test: LLE_IDO_ABS_DR (IDO assay, method not described)
Class boundaries, taken from values of IC50, are as follows: low bracket: < 200 nM; middle bracket: ≥ 200 nM and < 1000 nM; high bracket: ≥ 1000 nM

These recorded examples may help you get a feel for the data.
COMPOUND: CCC[C@@H](Oc1ccc(-c2cc(F)ccc2C(=O)O)cc1NC(=O)Nc1ccc(C)cc1)c1ccccc1
ASSIGNED CLASS: low bracket
//
COMPOUND: COc1ccc(-c2ccc(O[C@@H]3CCCC[C@H]3C)c(NC(=O)Nc3cccc(C)c3)c2)cc1C(=O)O (relative stereo)
ASSIGNED CLASS: high bracket
//
COMPOUND: COc1ccc(-c2ccc(Oc3cccc4c3OC(C)(C)C4)c(NC(=O)Nc3ccccc3Cl)c2)cc1C(=O)O
ASSIGNED CLASS: high bracket
//
COMPOUND: C/C=C/Cc1cc(-c2ccccc2-c2nnn[nH]2)cc(NC(=O)Nc2ccc(C)cc2)c1OCCC
ASSIGNED CLASS: low bracket
//
COMPOUND: CCCc1ccccc1Oc1ccc(-c2ccc(OC)c(C(=O)O)c2)cc1NC(=O)Nc1ccc(C)cc1
ASSIGNED CLASS: middle bracket
//
COMPOUND: C/C=C/Cc1cc(-c2ccccc2C(=O)O)cc(NC(=O)Nc2ccc(C)cc2)c1OCc1ccccc1
ASSIGNED CLASS: middle bracket
//
COMPOUND: CC(C)(C)c1ccccc1Oc1ccc(-c2ccc(F)cc2-c2nnn[nH]2)cc1NC(=O)Nc1ccccc1Cl
ASSIGNED CLASS: high bracket
//
COMPOUND: COc1ccc(-c2ccc(Oc3cccc4c3OC(C)(C)C4)c(NC(=O)Nc3cccc(C)c3)c2)cc1C(=O)O
ASSIGNED CLASS: high bracket
//
COMPOUND: Cc1ccccc1NC(=O)Nc1cc(-c2cccc(Cl)c2C(=O)O)ccc1Oc1ccccc1C(C)(C)C
ASSIGNED CLASS: high bracket
//
COMPOUND: O=C(Nc1ccccc1F)Nc1cc(-c2ccccc2-c2nnn[nH]2)ccc1Oc1cccc2c1CCCC2
ASSIGNED CLASS: high bracket

Query block: Which class holds C=CC(c1ccccc1)c1cc(-c2ccccc2-c2nnn[nH]2)cc(NC(=O)Nc2ccc(C)cc2)c1OCCC (racemic) ?
Result block: low bracket

Query block: Which class holds `CCCCc1cc(-c2cc(F)ccc2C(=O)O)cc(NC(=O)Nc2ccc(C)cc2)c1OCc1ccccc1` ?
Result block: low bracket

Query block: Which class holds `Cc1ccc(NC(=O)Nc2cc(-c3ccc(Cl)cc3-c3nnn[nH]3)ccc2Oc2ccccc2C(C)(C)C)cc1` ?
Result block: low bracket

Query block: Which class holds `COc1ccc(-c2ccc(Oc3ccccc3C(C)(C)C)c(NC(=O)Nc3ccccc3Cl)c2)c(C(=O)O)c1` ?
Result block: middle bracket

Query block: Which class holds `O=C(Nc1ccccc1F)Nc1cc(-c2cc(F)ccc2C(=O)O)cc(/C=C/C=C(F)F)c1OCCC(F)(F)F` ?
Result block: middle bracket

Query block: Which class holds `CC(C)(C)c1ccccc1Oc1ccc(-c2ccc(Cl)cc2C(=O)O)cc1NC(=O)Nc1ccccc1Cl` ?
Result block: high bracket

====

Molecular target: IDO (Homo sapiens (Human))
Assay: LLE_IDO_ABS_DR (IDO assay, method not described)
pIC50: −log10 of the molar value.
# binarize pIC50: threshold 6 inclusive, high side yes (1), low side no (0)

These recorded examples may help you get a feel for the data.
COMPOUND: COc1ccc(-c2ccc(Oc3cccc4c3CCCC4)c(NC(=O)Nc3ccccc3)c2)cc1C(=O)O
ASSIGNED CLASS: yes (1)
//
COMPOUND: CC(C)(C)c1ccccc1Oc1ccc(-c2ccc(F)cc2C(=O)O)cc1NC(=O)Nc1ccccc1Cl
ASSIGNED CLASS: no (0)

Query block: Is it the case that `CC(C)(C)c1ccccc1Oc1ccc(-c2cncc(C(=O)O)c2)cc1NC(=O)Nc1ccc(OC(F)(F)F)cc1` has pIC50 reaching or exceeding 6?
Result block: no (0)

Query block: Is it the case that CCCC(Oc1ccc(-c2ccccc2-c2nnn[nH]2)cc1NC(=O)Nc1ccc(C)cc1)c1ccccc1Cl (stereo not shown) has pIC50 reaching or exceeding 6?
Result block: yes (1)

====

Recorded IC50 for the following compounds
Target: Human IDO1 (Homo sapiens (Human), UniProt P14902)
Experiment: IDO Kynurenine Assay with Human IDO1/HEK293 Cells
Settings: HEK293 cells with human IDO1; read-out: HEK human IDO-1 (IC50)
Please state the figure in nM; there is no need to write the unit.

COMPOUND: COc1ccc(-c2ccc(Oc3ccccc3C(C)(C)C)c(NC(=O)Nc3ccc(Cl)cc3Cl)c2)cc1C(=O)O
UNIT ANNOTATION: nM
IC50: 1310

COMPOUND: CCCCCc1cc(-c2ccccc2-c2nnn[nH]2)cc(NC(=O)Nc2ccccc2F)c1OCCC
UNIT ANNOTATION: nM
IC50: 50

COMPOUND: COc1ccc(NC(=O)Nc2cc(-c3cccc(C(=O)O)c3)ccc2Oc2ccccc2C(C)(C)C)cc1
UNIT ANNOTATION: nM
IC50: 7500

COMPOUND: COc1ccc(-c2ccc(Oc3ccccc3C(C)(C)C)c(NC(=O)Nc3ccc(C)cc3)c2)cc1NS(=O)(=O)C(F)(F)F
UNIT ANNOTATION: nM
IC50: 750

COMPOUND: COc1ccc(-c2ccc(Oc3cccc4ccccc34)c(NC(=O)Nc3ccccc3C)c2)cc1C(=O)O
UNIT ANNOTATION: nM
IC50: 290

Query block: For the compound `CCCC(CCC)Oc1c(Br)cc(-c2ccccc2-c2nnn[nH]2)cc1NC(=O)Nc1ccccc1F` , report IC50.
Result block: 4.49

Query block: For the compound `COc1ccc(-c2ccc(Oc3cccc(C)c3C)c(NC(=O)Nc3ccccc3Cl)c2)cc1C(=O)O` , report IC50.
Result block: 260

Query block: For the compound `COc1ccc(-c2ccc(Oc3ccccc3C)c(NC(=O)Nc3ccc(C)cc3)c2)cc1C(=O)O` , report IC50.
Result block: 2970

Query block: For the compound `COc1ccc(-c2ccc(Oc3cccc4c3CCCC4)c(NC(=O)Nc3cccc(C)c3)c2)cc1C(=O)O` , report IC50.
Result block: 790

Query block: For the compound `C#CCOc1cccc(Oc2ccc(-c3ccc(OC)c(C(=O)O)c3)cc2NC(=O)Nc2ccccc2Cl)c1C` , report IC50.
Result block: 70

====

Recorded IC50 for the following molecules
Biological target: IDO (Homo sapiens (Human))
Test: LLE_IDO_ABS_DR (IDO assay, method not described)
Please state the figure in µM; there is no need to write the unit.

MOLECULE: CCCCC(Oc1ccc(-c2ccccc2-c2nnn[nH]2)cc1NC(=O)Nc1ccc(C)cc1)C1CCCCC1 (centres unmarked) [Example 272]
DATA VALUE: 0.1
//
MOLECULE: COc1ccc(-c2cnc(Oc3cccc4c3CCCC4)c(NC(=O)Nc3ccccc3Cl)c2C)cc1C(=O)O [Example 3]
DATA VALUE: 4.81
//
MOLECULE: Cc1ccc(NC(=O)Nc2cc(-c3ccccc3-c3nnn[nH]3)ccc2OC(CCC(F)(F)F)c2ccccc2)cc1 (centres unmarked) [Example 310]
DATA VALUE: 1.72
//
MOLECULE: CCCOc1c(CCCC(F)(F)F)cc(-c2ccccc2-c2nnn[nH]2)cc1NC(=O)Nc1ccc(C)cc1 [Example 31]
DATA VALUE: 0.04
//
MOLECULE: O=C(Nc1ccc(Cl)cc1)Nc1cc(-c2ccccc2-c2nnn[nH]2)cc(CC2CC2)c1OC1CCOCC1 [Example 331]
DATA VALUE: 0.81

Query block: For the molecule CCCC(Oc1ccc(-c2ccccc2-c2nnn[nH]2)cc1NC(=O)Nc1ccc(C)cc1)c1ccc(Cl)cc1 (centres unmarked) [Example 308] , report IC50.
Result block: 0.86

Query block: For the molecule COc1ccc(-c2ccc(Oc3c(C)cccc3C(C)(C)C)c(NC(=O)Nc3cccc(C)c3)c2)cc1C(=O)O [Example 60] , report IC50.
Result block: 1.15

Query block: For the molecule CCC[C@@H](Oc1ccc(-c2ccccc2-c2nnn[nH]2)cc1NC(=O)Nc1ccc(C)cc1)c1ccccc1 [Example 273] , report IC50.
Result block: 0.04

Query block: For the molecule Cc1cccc(NC(=O)Nc2cc(-c3cccc(C(=O)O)c3)ccc2Oc2ccccc2C(C)(C)C)c1 [Example 225] , report IC50.
Result block: 2.9

Query block: For the molecule CCCOc1c(C/C=C/c2ccccc2)cc(-c2ccccc2-c2nnn[nH]2)cc1NC(=O)Nc1ccc(C)cc1 [Example 34] , report IC50.
Result block: 0.17

Query block: For the molecule CC(C)(C)c1ccccc1Oc1ccc(-c2ccc(C(=O)O)c(Cl)c2)cc1NC(=O)Nc1ccccc1Cl [Example 215] , report IC50.
Result block: 1.83

====

Biological target: IDO (Homo sapiens (Human), UniProt P14902)
Sequence (P14902 whole entry): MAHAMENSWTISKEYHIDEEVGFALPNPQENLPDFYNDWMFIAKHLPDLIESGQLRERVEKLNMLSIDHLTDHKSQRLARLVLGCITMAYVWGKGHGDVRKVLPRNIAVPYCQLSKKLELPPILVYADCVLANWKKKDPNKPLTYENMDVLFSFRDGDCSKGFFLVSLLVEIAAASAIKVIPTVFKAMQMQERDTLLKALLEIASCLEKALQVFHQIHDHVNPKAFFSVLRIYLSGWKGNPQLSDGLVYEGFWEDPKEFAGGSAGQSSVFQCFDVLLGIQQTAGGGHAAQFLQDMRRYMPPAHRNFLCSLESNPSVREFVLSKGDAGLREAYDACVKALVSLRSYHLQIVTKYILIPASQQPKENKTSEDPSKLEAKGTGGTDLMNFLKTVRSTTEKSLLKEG
Experiment: Kynurenine assay in IFN-γ-stimulated Hela cells
Format: cell-based
Conditions: 20 h, read-out: Hela Kyurenine (IC50)
ASSAY READOUT: IC50 (nM)
Please state the figure in nM; there is no need to write the unit.

STRUCTURE AS SMILES: CC(C)(C)c1ccccc1Oc1ccc(-c2ccc(C(=O)O)cc2)cc1NC(=O)Nc1ccc(C(F)(F)F)cc1
UNIT ANNOTATION: nM
IC50: 1740

STRUCTURE AS SMILES: C#CCNC(=O)Nc1cc(-c2ccc(OC)c(C(=O)O)c2)ccc1Oc1ccccc1C(C)(C)C
UNIT ANNOTATION: nM
IC50: 780

STRUCTURE AS SMILES: CCc1ccccc1Oc1ccc(-c2ccc(OC)c(C(=O)O)c2)cc1NC(=O)Nc1cccc(Cl)c1
UNIT ANNOTATION: nM
IC50: 240

Query block: For the molecule `Cc1ccc(NC(=O)Nc2cc(-c3cc(Cl)ccc3C(=O)O)ccc2Oc2ccccc2C(C)(C)C)cc1` , report IC50.
Result block: 240

Data origin, for the record: patent US9765018B2
